# study system: human parkin, full-length (human, UniProt O60260 1-465)
# Sequence (O60260 whole entry): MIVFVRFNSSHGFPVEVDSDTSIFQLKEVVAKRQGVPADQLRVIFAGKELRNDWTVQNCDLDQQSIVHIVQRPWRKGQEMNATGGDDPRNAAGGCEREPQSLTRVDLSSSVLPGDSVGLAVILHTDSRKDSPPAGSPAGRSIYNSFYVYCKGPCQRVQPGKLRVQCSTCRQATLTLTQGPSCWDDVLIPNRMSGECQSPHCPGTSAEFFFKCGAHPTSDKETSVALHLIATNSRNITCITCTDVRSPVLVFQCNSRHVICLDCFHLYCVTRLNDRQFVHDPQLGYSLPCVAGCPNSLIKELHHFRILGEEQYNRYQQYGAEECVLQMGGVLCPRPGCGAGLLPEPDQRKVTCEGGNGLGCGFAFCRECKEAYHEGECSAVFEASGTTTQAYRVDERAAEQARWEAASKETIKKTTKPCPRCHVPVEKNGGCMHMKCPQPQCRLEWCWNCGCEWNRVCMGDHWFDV
# run description: ITC
pKd: −log10 of the molar value.

| binder | pKd |
| --- | --- |
| human CISD1 (residues 32-108) (domain or fragment, UniProt Q9NZ45 32-108, looked up) KRFYVKDHRNKAMINLHIQKDNPKIVHAFDMEDLGDKAVYCRCWRSKKFPFCDGAHTKHNEETGDNVGPLIIKKKET | < 4.00 |

Data provenance: paper doi:10.1101/2021.06.01.446590
